I'd be grateful if you could share measured logD for these entries.
Assay: Log D shake flask method (octanol / PBS pH 7.4, HPLC)
Format: physicochemical
Details: octanol/phosphate-buffered saline (PBS); octanol / PBS pH 7.4, shake flask

Look at this compound and give its reported logD. `Cc1cc(C(=O)N[C@@H](CC/C=C/C(=O)Nc2ccccc2)C(=O)Nc2cccn(CC(=O)NC34CC(C3)C4)c2=O)c(C)o1` 1 to 3

Look at this compound and give its reported logD. COC(=O)/C=C/CC[C@H](NC(=O)c1sc(Br)cc1Br)C(=O)Nc1cccn(CC(=O)NC2C3CC4CC(C3)CC2C4)c1=O (stereo partly drawn) 3 to 5

Look at this compound and give its reported logD. `Cc1c(C(=O)N[C@@H](CC/C=C/C(=O)N(C)C)C(=O)Nc2cccn(CC(=O)NC34CC5CC(C)(CC(C)(C5)C3)C4)c2=O)oc2ccccc12` 3 to 5

Look at this compound and give its reported logD. CN(C)C(=O)/C=C/CC[C@H](NC(=O)c1cncn1C)C(=O)Nc1cccn(CC(=O)NC2C3CC4CC(C3)CC2C4)c1=O (stereo partly drawn) 1 to 3

Look at this compound and give its reported logD. `COC(=O)/C=C/CC[C@H](NC(=O)c1c[nH]c(C(N)=O)c1)C(=O)Nc1cccn(CC(=O)NC23CC(C2)C3)c1=O` < 1

Look at this compound and give its reported logD. COC(=O)/C=C/CC[C@H](NC(=O)c1oc2ccccc2c1C)C(=O)Nc1cccn(CC(=O)NC2C3CC4CC2CC(C)(C4)C3)c1=O (stereo partly drawn) 3 to 5

* * *

Experiment: Log D shake flask method (octanol / PBS pH 7.4, HPLC)
Assay type: physicochemical
Settings: octanol/phosphate-buffered saline (PBS); octanol / PBS pH 7.4, shake flask
I'd be grateful if you could share measured logD for these entries.

Look at this compound and give its reported logD. `COC(=O)/C=C/CC[C@H](NC(=O)c1cncn1C)C(=O)Nc1cccn(CC(=O)N[C@@H]2C[C@H]3CC[C@@H]2C3)c1=O` 1 to 3

Look at this compound and give its reported logD. `COC(=O)/C=C/CC[C@H](NC(=O)c1cnnn1C)C(=O)Nc1cccn(CC(=O)N[C@@H]2C[C@@H]3CC[C@H]2C3)c1=O` < 1

Look at this compound and give its reported logD. COC(=O)/C=C/CC[C@H](NC(=O)c1cncnc1C)C(=O)Nc1cccn(CC(=O)NC2C3CC4CC2CC(C(=O)O)(C4)C3)c1=O (stereo partly shown) < 1

Look at this compound and give its reported logD. COC(=O)/C=C/CC[C@H](NC(=O)[C@@H]1C[C@H](Br)CN1)C(=O)Nc1cccn(CC(=O)NC2C3CC4CC(C3)CC2C4)c1=O (stereo partly shown) 3 to 5

Look at this compound and give its reported logD. COC(=O)/C=C/CC[C@H](NC(=O)c1c(C)noc1C)C(=O)Nc1cccn(CC(=O)NC2C3CCCC2CC3)c1=O (stereo partly shown) 1 to 3

Look at this compound and give its reported logD. COC(=O)/C=C/CC[C@H](NC(=O)c1oc2ccccc2c1C)C(=O)Nc1cccn(CC2C3CC4CC(C3)CC2C4)c1=O (stereo partly shown) 3 to 5

Look at this compound and give its reported logD. `COC(=O)/C=C/CC[C@H](NC(=O)c1oc2ccccc2c1C)C(=O)Nc1cccn(CC(=O)NC23CC4CC5C2C[C@@H]2C[C@H]5C(C4)[C@H]3C2)c1=O` 3 to 5

Look at this compound and give its reported logD. `COC(=O)/C=C/CC[C@H](NC(=O)c1snnc1C)C(=O)Nc1cccn(CC(=O)N[C@H]2C[C@H]3CC[C@]2(C)C3(C)C)c1=O` 1 to 3

Look at this compound and give its reported logD. `COC(=O)/C=C/CC[C@H](NC(=O)c1snnc1C1CC1)C(=O)Nc1cccn(CC(=O)NC23CC(C2)C3)c1=O` < 1

Look at this compound and give its reported logD. `COC(=O)/C=C/CC[C@H](NC(=O)c1cnc(NC(C)=O)s1)C(=O)Nc1cccn(CC(=O)NC23CC(C2)C3)c1=O` < 1

Look at this compound and give its reported logD. COC(=O)/C=C/CC[C@H](NC(=O)c1oc2ccccc2c1C)C(=O)Nc1cccn(CC(=O)NC2C3CC4CC2CC(Cl)(C4)C3)c1=O (stereo partly shown) 3 to 5

Look at this compound and give its reported logD. Cc1c(C(=O)N[C@@H](CC/C=C/S(C)(=O)=O)C(=O)Nc2cccn(CC(=O)NC3C4CC5CC(C4)CC3C5)c2=O)oc2ccccc12 (stereo partly shown) 1 to 3

Look at this compound and give its reported logD. `COC(=O)/C=C/CC[C@H](NC(=O)c1oc2ccccc2c1C)C(=O)Nc1cccn(CC(=O)NC23CC4CC(C2)CC(C(F)(F)F)(C4)C3)c1=O` 3 to 5

* * *

Assay: Caco-2 permeability assay (CacoReady kit)
Type: in vitro ADME
Details: human
RECORDED ENDPOINT: Papp

Look at this molecule and give its reported Papp. COC(=O)/C=C/CC[C@H](NC(=O)c1cccnc1)C(=O)Nc1cccn(CC(=O)NCCc2ccccc2)c1=O [Ref. 5, reference compound] < 10 nm/s

Look at this molecule and give its reported Papp. `COC(=O)/C=C/CC[C@H](NC(=O)c1oc2ccccc2c1C)C(=O)Nc1cccn(CC(=O)N[C@@H]2C[C@H]3CC[C@]2(C)C3(C)C)c1=O` 10 to 100 nm/s

Look at this molecule and give its reported Papp. `COC(=O)/C=C/CC[C@H](NC(=O)c1cc2ccc(N(C)C)cc2o1)C(=O)Nc1cccn(CC(=O)NC23CC(C2)C3)c1=O` < 10 nm/s

* * *

Assay: Caco-2 permeability assay (CacoReady kit)
Format: in vitro ADME
Conditions: human
I'd be grateful if you could share measured Papp for these entries.

Look at this compound and give its reported Papp. Cc1oc(Br)cc1C(=O)N[C@@H](CC/C=C/C(=O)Nc1ccccc1)C(=O)Nc1cccn(CC(=O)NC23CC(C2)C3)c1=O [III-152] 1 to 10 ×10⁻⁶ cm/s

Look at this compound and give its reported Papp. COC(=O)/C=C/CC[C@H](NC(=O)c1ccc2ccoc2c1)C(=O)Nc1cccn(CC(=O)NC2C3CC4CC2CC(C(N)=O)(C4)C3)c1=O (stereo partly shown) [III-166] < 1 ×10⁻⁶ cm/s

Look at this compound and give its reported Papp. Cc1c(C(=O)N[C@@H](CC/C=C/C(=O)N(C)C)C(=O)Nc2cccn(CC(=O)NC3C4CC5CC(C4)CC3C5)c2=O)oc2ccccc12 (stereo partly shown) [III-75] 1 to 10 ×10⁻⁶ cm/s

Look at this compound and give its reported Papp. COC(=O)/C=C/CC[C@H](NC(=O)c1nncs1)C(=O)Nc1cccn(CC(=O)NC23CC(C2)C3)c1=O [III-171] < 1 ×10⁻⁶ cm/s

* * *

I'd be grateful if you could share measured Papp for these entries.
Experiment: Caco-2 permeability assay (CacoReady kit)
Type: in vitro ADME
Settings: human

Look at this compound and give its reported Papp. COC(=O)/C=C/CC[C@H](NC(=O)c1oc2ccccc2c1C)C(=O)Nc1cccn(CC(=O)NC2CC3C=CC2C3)c1=O (stereo partly shown) [III-66] 1 to 10 ×10⁻⁶ cm/s

Look at this compound and give its reported Papp. COC(=O)/C=C/CC[C@H](NC(=O)c1sc(Br)cc1Br)C(=O)Nc1cccn(CC(=O)NC2C3CC4CC(C3)CC2C4)c1=O (stereo partly shown) [III-15] 1 to 10 ×10⁻⁶ cm/s

Look at this compound and give its reported Papp. O=C(/C=C/CC[C@H](NC(=O)c1nc(Cl)sc1Cl)C(=O)Nc1cccn(CC(=O)NC23CC(C2)C3)c1=O)NCc1ccccc1 [III-154] 1 to 10 ×10⁻⁶ cm/s

Look at this compound and give its reported Papp. COC(=O)/C=C/CC[C@H](NC(=O)c1ccnn1C)C(=O)Nc1cccn(CC(=O)N[C@@H]2C[C@H]3CC[C@@H]2C3)c1=O [III-111] < 1 ×10⁻⁶ cm/s

Look at this compound and give its reported Papp. COC(=O)/C=C/CC[C@H](NC(=O)c1cn(C)nn1)C(=O)Nc1cccn(CC(=O)NC2C3CC4CC(C3)CC2C4)c1=O (stereo partly shown) [III-103] 1 to 10 ×10⁻⁶ cm/s

Look at this compound and give its reported Papp. COC(=O)/C=C/CC[C@H](NC(=O)c1oc2ccccc2c1C)C(=O)Nc1cccn(CC23CC4CC(CC(Br)(C4)C2)C3)c1=O [III-81] 1 to 10 ×10⁻⁶ cm/s

Look at this compound and give its reported Papp. COC(=O)/C=C/CC[C@H](NC(=O)c1cc2cccc(F)c2s1)C(=O)Nc1cccn(CC(=O)NC2C3CC4CC(C3)CC2C4)c1=O (stereo partly shown) [III-7] 1 to 10 ×10⁻⁶ cm/s

Look at this compound and give its reported Papp. COC(=O)/C=C/CC[C@H](NC(=O)c1cncn1C)C(=O)Nc1cccn(CC(=O)N[C@H]2C[C@H]3CC[C@]2(C)C3(C)C)c1=O [III-60] < 1 ×10⁻⁶ cm/s

Look at this compound and give its reported Papp. CCc1c(C(=O)N[C@@H](CC/C=C/C(=O)NC2CCCC2)C(=O)Nc2cccn(CC(=O)NC34CC(C3)C4)c2=O)oc2ccccc12 [III-147] 1 to 10 ×10⁻⁶ cm/s

Look at this compound and give its reported Papp. Cn1ccnc1C(=O)N[C@@H](CC/C=C/C(=O)c1ccccc1)C(=O)Nc1cccn(CC(=O)NC23CC(C2)C3)c1=O [III-157] < 1 ×10⁻⁶ cm/s

Look at this compound and give its reported Papp. COC(=O)/C=C/CC[C@H](NC(=O)c1snnc1C)C(=O)Nc1cccn(CC(=O)NC23CC4CC(C)(CC(C)(C4)C2)C3)c1=O [III-112] < 1 ×10⁻⁶ cm/s

Look at this compound and give its reported Papp. CCN(CC)C(=O)/C=C/CC[C@H](NC(=O)[C@@H]1CN2CCN1CC2)C(=O)Nc1cccn(CC(=O)NC23CC(C2)C3)c1=O [III-139] < 1 ×10⁻⁶ cm/s

Look at this compound and give its reported Papp. COC(=O)/C=C/CC[C@H](NC(=O)c1cncn1C)C(=O)Nc1cccn(CC(=O)NC2C3CC4CC(C3)CC2C4)c1=O (stereo partly shown) [III-1] < 1 ×10⁻⁶ cm/s
